These entries and their values trace back to patent US20250152553A1.

assay: Chemical stability in PBS pH 6.5; type: physicochemical; settings: PBS pH 6.5, 120 min
MEASURED PROPERTY: Remaining Percentage (%) 120 min
Value expressed in %; do not type the unit.

Solved entries:
CCSC(=O)NC(C)Cc1ccc2c(c1)OCO2 (stereo not drawn) [Prodrug 8]
102.82
CCOC(=S)NC(C)Cc1ccc2c(c1)OCO2 (stereo not drawn) [Prodrug 4]
94.76

Here is another compound to look at.
// Remaining Percentage (%) 120 min lookup, compound = CCSC(=S)N(C)C(C)Cc1ccc2c(c1)OCO2 (stereo not drawn) [Prodrug 11] , result: 96.45

---

assay: Solubility in FaSSIF; assay type: physicochemical; conditions: read-out: SOL (μM) FaSSIF
MEASURED PROPERTY: solubility (µM)
# value in µM; strip the unit string

Some compounds with known solubility results, for comparison:
CCSC(=S)N(C)C(C)Cc1ccc2c(c1)OCO2 (centres unmarked) [Prodrug 11]
63.7
CSC(=O)N(C)C(C)Cc1ccc2c(c1)OCO2 (centres unmarked) [Prodrug 5]
308

For record CCSC(=O)N(C)C(C)Cc1ccc2c(c1)OCO2 (centres unmarked) [Prodrug 7] the listed solubility is 291

Entry CCSC(=O)NC(C)Cc1ccc2c(c1)OCO2 (centres unmarked) [Prodrug 8] — recorded solubility = 288

Entry under test: CCOC(=S)NC(C)Cc1ccc2c(c1)OCO2 (centres unmarked) [Prodrug 4] . Its solubility was 60.3

---

test: Chemical stability in PBS pH 6.5; format: physicochemical; settings: PBS pH 6.5, 120 min
MEASURED PROPERTY: Remaining Percentage (%) 120 min
Answer with the number, then the unit.

O=C(O)Cc1ccccc1Nc1c(Cl)cccc1Cl [Diclofenac, reference compound]
13.15%

In plain terms, COC(=S)NC(C)Cc1ccc2c(c1)OCO2 (stereo not drawn) [Prodrug 2] has a documented Remaining Percentage (%) 120 min of 102.27%

Measured Remaining Percentage (%) 120 min, CSC(=S)N(C)C(C)Cc1ccc2c(c1)OCO2 (stereo not drawn) [Prodrug 9] : 107.55%
